Observed Property: melting point

[
  {
    "Molecule": "NCCCCCCCCC(=O)O",
    "Observed Result": "190 to 193 °C"
  },
  {
    "Molecule": "CCCc1c(OCc2ccc(C(=O)O)cc2F)ccc(C(C)=O)c1O",
    "Observed Result": "203 to 206 °C"
  },
  {
    "Molecule": "O=C(NCC1CCCO1)c1cccc(-c2ccc3c(c2)C(c2cc(Cl)ccc2Cl)CC3)c1 (centres undefined)",
    "Observed Result": "122 °C"
  },
  {
    "Molecule": "NC(=O)c1ncn2c1nc(N1CCOCC1)c1ccccc12",
    "Observed Result": "> 300 °C"
  },
  {
    "Molecule": "N#Cc1cc(-c2ccccc2)[nH]c1Sc1ccc2ccccc2c1",
    "Observed Result": "93 to 94.4 °C"
  },
  {
    "Molecule": "CCNCC1CCN(c2c(F)cc3c(=O)c(C(=O)O)cn4c3c2OCC4CC)C1 (centres undefined)",
    "Observed Result": "221 to 224 °C"
  },
  {
    "Molecule": "CCOC(=O)Cc1cccc(Sc2ccccc2Cl)c1[N+](=O)[O-]",
    "Observed Result": "78 to 80 °C"
  },
  {
    "Molecule": "CS(=O)(=O)c1ccc(-n2nc(C(F)(F)F)cc2-c2ccc(-c3cocn3)cc2)cc1",
    "Observed Result": "175 to 177 °C"
  },
  {
    "Molecule": "CC=CC(O)c1c(C(C)C)nc(C(C)C)c(CCCCC)c1-c1ccc(F)cc1 (centres undefined)",
    "Observed Result": "70 to 72 °C"
  },
  {
    "Molecule": "O=C(c1nnn(Cc2cc(C(F)(F)F)cc(C(F)(F)F)c2)c1-n1ccnc1)c1c(CO)noc1-c1ccccc1Cl",
    "Observed Result": "149 °C"
  },
  {
    "Molecule": "C=CC1CCC2C3CC(=O)C4=CC(=O)CCC4(C)C3CCC12C (centres undefined)",
    "Observed Result": "114 to 120 °C"
  },
  {
    "Molecule": "Cn1c(Sc2cc(C(F)(F)F)ccc2C(=O)O)n[nH]c1=O",
    "Observed Result": "229 °C"
  },
  {
    "Molecule": "OCc1cn(-c2cccc3cccnc23)cn1",
    "Observed Result": "168 to 170 °C"
  },
  {
    "Molecule": "Cc1cccc(Cn2c(NC3CCN(CCO)CC3)nc3cccnc32)n1",
    "Observed Result": "152 °C"
  },
  {
    "Molecule": "CC(=C1SCCCS1)c1cccc(OCC(=O)O)c1",
    "Observed Result": "133 to 134 °C"
  },
  {
    "Molecule": "CCCC=C(NC(=O)c1ccccc1)C(=O)OCC",
    "Observed Result": "68 to 70 °C"
  },
  {
    "Molecule": "Cc1ccc(-c2ccccc2-c2c(OC(C)C)c(=O)c2=O)cc1",
    "Observed Result": "126 to 130 °C"
  },
  {
    "Molecule": "C#CC1(O)CCC2C3CCC4=CC(=O)CCC4C3C(=CF)CC21C (centres undefined)",
    "Observed Result": "188 to 190 °C"
  },
  {
    "Molecule": "Cc1cc([N+](=O)[O-])c2c(c1Cl)CC(CO)O2 (centres undefined)",
    "Observed Result": "112 to 115 °C"
  },
  {
    "Molecule": "O=C1NC(=O)C(Cc2ccccc2)N1 (centres undefined)",
    "Observed Result": "187 to 189 °C"
  },
  {
    "Molecule": "NS(=O)(=O)c1ccccc1N1CCCC1",
    "Observed Result": "78 °C"
  },
  {
    "Molecule": "CCc1ccnc(C(=O)c2[nH]c3ccc(OC(F)(F)F)cc3c2CC(=O)O)c1",
    "Observed Result": "223 °C"
  },
  {
    "Molecule": "NC(=O)C(CCCCCOc1c(Cl)ccc(C=O)c1[N+](=O)[O-])N1CCCCC1 (centres undefined)",
    "Observed Result": "98 to 99 °C"
  },
  {
    "Molecule": "CCOC(=O)c1ncn2c1CN(Cc1ccc(OC)cc1OC)C(=O)c1c(Cl)cccc1-2",
    "Observed Result": "129 to 130 °C"
  },
  {
    "Molecule": "CN(C)CCC(c1ccccc1)c1ncc[nH]1 (centres undefined)",
    "Observed Result": "135 to 136 °C"
  },
  {
    "Molecule": "CCC(CC)n1ncn(-c2ccc(N3CCNCC3)cc2)c1=O",
    "Observed Result": "135 to 137 °C"
  },
  {
    "Molecule": "N#Cc1nc(Cl)nc(N2CCS(=O)CC2)c1Cl",
    "Observed Result": "145 to 147 °C"
  },
  {
    "Molecule": "CC(C)(C)c1cc(C(=O)c2nccs2)cc(C(C)(C)C)c1O",
    "Observed Result": "106 to 108 °C"
  },
  {
    "Molecule": "CCn1c(=O)c2[nH]c(/C=C/c3ccc(OCOC)cc3)nc2n(CC)c1=O",
    "Observed Result": "270 to 271 °C"
  },
  {
    "Molecule": "CCOC(=O)c1c(C)nc(N2CCN(c3ccccc3)CC2)c2nccnc12",
    "Observed Result": "85 to 87 °C"
  },
  {
    "Molecule": "O=C(NCCO)c1cccc(-c2ccc3ccn(Cc4ccc(Cl)cc4Cl)c3n2)c1",
    "Observed Result": "161 to 162 °C"
  },
  {
    "Molecule": "O=C(O)c1ccnc(-c2ccc3c(c2)C(c2ccc(Cl)cc2Cl)CC3)c1 (centres undefined)",
    "Observed Result": "205 to 206 °C"
  },
  {
    "Molecule": "CN(C(=O)OC(C)(C)C)c1ccc2onc(OCC(CO)NC(=O)OC(C)(C)C)c2c1 (centres undefined)",
    "Observed Result": "109 to 112 °C"
  },
  {
    "Molecule": "COc1ccc(CN2CCc3c(c(=O)oc4cc(OC)ccc34)C2)cc1",
    "Observed Result": "101 to 103 °C"
  }
]

These measurements were taken from a melting point compilation (Tetko et al.; mined from patent text by program, amines drawn as free bases though some values may be those of a salt).
